# procedureText: in vivo
# conditionParameters: male, ICR, mouse, plasma, po, 20 mg/kg
outcomeMeasure: bioavailability (%)

[[record]]
compound = "COc1cc(C(=O)c2c[nH]c(-c3ccc(Cl)cc3)n2)cc(OC)c1OC [12fa]"
outcomemeasure = "bioavailability"
reading = 62


====

# Tested on: PC-3
# procedureText: SRB cytotoxicity assay, PC-3 prostate cancer cells
# Assay type: cell-based, human
# conditionParameters: Homo sapiens, PC-3; Table 16B; read-out: IC50 in PC3
# From the text: Cells were stained with SRB solution.
outcomeMeasure: IC50 (nM)

[[record]]
compound = "COc1cc(C(=O)c2csc(Nc3ccc4[nH]ccc4c3)n2)cc(OC)c1OC [compound 55]"
systemname = "PC-3"
outcomemeasure = "IC50"
reading = 28


====

# System: DU 145
# procedureText: SRB cytotoxicity assay, DU 145 prostate cancer cells
# Format: cell-based
# conditionParameters: Homo sapiens, Table 6A, read-out: IC50 DU 145
IC50 reference
outcomeMeasure: IC50

[[record]]
molecule = "COc1ccc(C(=O)n2ccnc2-c2ccc(F)cc2)cc1 [compound 24]"
reading = "> 10 µM"

[[record]]
molecule = "Cc1ccc(-c2nc(C(=O)c3ccc(F)cc3)cs2)cc1 [compound 11]"
reading = "~10 µM"


====

# Test system: PPC-1
# procedureText: SRB cytotoxicity assay, PPC-1 prostate cancer cells
# Type: cell-based, human
# conditionParameters: Homo sapiens, PPC-1; Table 6A; read-out: IC50 PPC-1
pIC50: −log10 of the molar value.
outcomeMeasure: pIC50

[[record]]
itemsmiles = "Cc1ccc(-c2nc(C(=O)c3ccc(F)cc3)cs2)cc1"
reading = "~5.00"

[[record]]
itemsmiles = "COc1ccc(C(=O)n2ccnc2-c2ccc(F)cc2)cc1"
reading = "< 5.00"


====

half-life at 0.5 μM reference
# procedureText: Metabolic stability in rat liver microsomes
# Format: in vitro ADME
# conditionParameters: rat, liver microsomes, pH 7.4; phase I pathway; read-out: T ½ (min), rat liver microsomes
outcomeMeasure: half-life at 0.5 μM

[[record]]
itemsmiles = "c1cc2ccc(-c3ccc4[nH]ccc4c3)cc2c(-c2ccc3[nH]ccc3c2)n1"
reading = "9 min"

[[record]]
itemsmiles = "Fc1ccc(-c2nccc3ccc(-c4ccc5[nH]ccc5c4)cc23)cc1"
reading = "14 min"

[[record]]
itemsmiles = "COc1cc(-c2nccc3ccc(-c4ccc5[nH]ccc5c4)cc23)cc(OC)c1OC"
reading = "12 min"


====

# procedureText: Metabolic stability in human liver microsomes
# conditionParameters: human, liver microsomes, pH 7.4
// classify: if (half-life at 0.5 μM < 40 min) true else false

[[record]]
molecule = "COc1cc(C(=O)c2c[nH]c(-c3ccc(Cl)cc3)n2)cc(OC)c1OC [12fa]"
grouplabel = "false"

[[record]]
molecule = "Fc1ccc(-c2nccc3ccc(-c4ccc5[nH]ccc5c4)cc23)cc1"
grouplabel = "false"

[[record]]
molecule = "COc1cc(-c2csc(-c3ccccc3)n2)cc(OC)c1OC"
grouplabel = "true"

[[record]]
molecule = "COc1cc(C(=O)c2c[nH]c(-c3ccc(C)cc3)n2)cc(OC)c1OC [12da]"
grouplabel = "true"

[[record]]
molecule = "COc1cc(C(=NC#N)c2csc(-c3ccccc3)n2)cc(OC)c1OC"
grouplabel = "true"

[[record]]
molecule = "COc1cc(-c2nccc3ccc(-c4ccc5[nH]ccc5c4)cc23)cc(OC)c1OC"
grouplabel = "true"


This collection of values is drawn from patent US12187720B2.
